Experiment Description: viability of PTEN-null HCT116 cells – cell-based, HCT116 clonal line, CellTiter-Glo, pilot screen (AID 824);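 note: 0% = 20 µM Hyamine control and 100% = vehicle cell control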
Assay Conditions: HCT116 PTEN-deleted viability, 60 h, at 10 µM
Records with an inconclusive call do not appear. Calls of active or inactive are those of the source.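 Rule for the calls: active = viability at or below 27.92% in each of two runs, the all-compound median minus 4 SD; inconclusive = no clear call, values can overlap the other calls; inactive = the rest.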
// allowed return values: active, inactive

Example results:
Q: Hi team, can someone confirm the assay call for Cc1nnc(NC(=O)c2ccco2)s1 ?
Result: inactive

Q: Hi, sorry to bother you, what did the test record for CNc1nc(C)nc(-c2ccccc2O)n1 ?
Result: inactive

Q: Given CN1C(=O)c2cccc(NC(=O)CCc3ccccc3)c2C1=O , state the outcome it received in this test.
Result: inactive

Q: What is the recorded call for this compound in the test? CCCOCCOC(=O)c1[nH]c2c(c1C)C(=O)CC(c1cc(OC)ccc1OC)C2 (centres undefined)
Result: active

Q: GET /call?item= CC1CN(c2ccc(Oc3ccccc3)cc2)c2nc3c(c(=O)n(CC(N)=O)c(=O)n3C)n2C1 (centres undefined) returns the recorded outcome of this test.
Result: inactive

Q: Hey, what did the test say about CCCCn1c(CN2CCN(c3ccccc3)CC2)nc2c1c(=O)n(C)c(=O)n2C ?
Result: inactive

Q: Short answer needed: outcome of this test for CC(C)N(Cc1nc2ccccc2[nH]1)C(C)C ?
Result: inactive

Q: Record request — test call for Clc1cccc(N2CCN(Cc3nc(-c4ccccc4)no3)CC2)c1
Result: inactive

Q: # lookup: test call for CC1CCCCN1CCNC(=O)c1ccc2c(=O)n(CCc3ccccc3)c(=O)[nH]c2c1 (centres undefined)
Result: inactive

Q: Test call for this compound, please: Cc1ccc(C)c2[nH]c(=O)c(CCNC(=O)c3cc4ccccc4o3)cc12
Result: inactive

More entries:
Q: Recorded call for CC1Cc2ccccc2C(=O)N1 (centres undefined) ?
Result: inactive

Q: Short answer needed: outcome of this test for CN(C)c1ccc(NC(=O)Cn2cc3c(n2)CCCC3)cc1 ?
Result: inactive

Q: Which outcome was assigned to O=C(NCCOC(=O)C1COc2ccccc2O1)C1COc2ccccc2O1 (centres undefined) in this test?
Result: inactive

---

Experiment Description: S. cerevisiae growth inhibition in restrictive medium, OD615, pilot screen, restrictive growth control, yeast lifespan reduction project (AID 706);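 note: modified DeaD lifespan yeast strain shifted to restrictive glucose medium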
Assay Conditions: OD615, 48 h, at 10 µM, stronger effect = higher value
Reported Metric: growth inhibition (%)
Numbers only here, please. The scale is %.

Q: Returns the measured growth inhibition for the input molecule. Input: COc1cc2c(cc1OC)CN(C(=O)CSc1nnc3scc(-c4ccccc4)n13)CC2
Result: 69

Q: Given CCCC(=O)NC(C)c1nc2ccccc2n1C(C)C (stereo unspecified) , state its recorded growth inhibition.
Result: -16.6

Q: What value of growth inhibition has been recorded for this entry: Cc1ccc(S(=O)(=O)N2CCC(C(=O)N3CCN(Cc4ccccc4)CC3)CC2)cc1
Result: 0.335

Q: I am curious: what growth inhibition value has been reported for Cc1ccc2oc(=O)n(CC(=O)O)c2c1 ?
Result: 5.35

Q: Name the recorded growth inhibition for COc1ccc(NC(=O)C2CCCCN2S(=O)(=O)c2ccc(F)cc2)cc1 (stereo unspecified) .
Result: -18.4

Q: Item under review: CCOC(=O)N1CCC(N2C(=O)c3ccccc3C2Nc2ccccc2C)CC1 (stereo unspecified) . Reported growth inhibition?
Result: -23.2

---

Experiment Description: S. cerevisiae growth inhibition in permissive medium (OD615), pilot counter-assay for S. cerevisiae lifespan shortening project, permissive growth control (AID 705)
Assay Conditions: OD615, 24 h, at 10 µM, stronger effect = higher value
# growth inhibition values compiled below
Could you give me the number in %? Just the number is fine.

Examples from the recorded data:
Q: Return reported growth inhibition; argument: Cc1ccc(-n2nc(C)c3cc(C(=O)O)sc32)cc1
Result: 16

Q: Reported growth inhibition for COc1cccc(CNC(=O)CCS(=O)(=O)c2cccc3nsnc23)c1 : what is it?
Result: -8.72

Q: If you can, please state the reported growth inhibition value of CCCCC(=O)Nc1ccc(Br)cc1C(=O)O .
Result: 5.08

Next:
Q: Quick one: growth inhibition of CC(C)OCCCNS(=O)(=O)c1ccc2c(c1)oc(=O)n2C ?
Result: -13.3

Q: GET /values?readout=growth inhibition&item= CC1CN(S(=O)(=O)c2ccc(C(=O)Nc3nnc(-c4ccc5c(c4)CCCC5)o3)cc2)CC(C)O1 (stereo not drawn)
Result: -19.1

Q: Which growth inhibition reading was recorded for the molecule CC(=O)C1=C(N2CCCCC2)CCC1=O ?
Result: 2.54

Q: Which growth inhibition value belongs to COc1ccc(S(=O)(=O)N2CCN(C)CC2)c2ccccc12 ?
Result: -8.04

Q: Which value of growth inhibition has been reported for CC(OC(=O)c1cc[n+]([O-])cc1)C(=O)Nc1ccc(Cl)cn1 (stereo not drawn) in the records?
Result: 0.77

Q: Recorded growth inhibition of O=C(O)C1C2C=CC3(CN(C/C=C/c4ccccc4)C(=O)C13)O2 (stereo not drawn) , please.
Result: -17.1

Q: Requested field: growth inhibition. Item: COc1ccc(-c2nc(N3CCCC3)[nH]c(=O)c2C#N)cc1
Result: 0.51

Q: I have this molecule here, CC(Sc1nnc(Cn2c(=O)sc3ccccc32)n1C)c1ccccc1 (stereo not drawn) , and I need its recorded growth inhibition.
Result: -3.63

Q: Record request: growth inhibition value, item Cc1ccccc1-n1c(Cn2c(=O)sc3ccccc32)nnc1SCC(N)=O
Result: -3.65

Q: For the molecule shown here, COC(=O)c1ccccc1NC1c2ccccc2C(=O)N1c1cccnc1 (stereo not drawn) , give the reported growth inhibition.
Result: -16.1

Q: Which growth inhibition is reported for this molecule? Cc1cccc(C2CC(c3ccccc3)Nc3nc(N)nn32)c1 (stereo not drawn)
Result: 1.73

Q: Could you tell me which growth inhibition is on file for O=C(CS(=O)(=O)c1cn(Cc2cccc(F)c2)c2ccccc12)N1CCOCC1 ?
Result: -9.09

Q: What value of measured growth inhibition is listed for Cc1cccc(-n2ncc3c(NC(C)C)ncnc32)c1 ?
Result: 5.47

Q: Endpoint output: growth inhibition of Cc1cccc(OCC(=O)Nc2ccc(N3CCCC3)cc2)c1C . Value?
Result: 15.7

Q: Can you share its growth inhibition? I mean this molecule: CCCCN(C)C(=O)c1cn(C)c2ccc(S(=O)(=O)N(C)C)cc2c1=O
Result: -3.25

Q: Fill in the blank: the reported growth inhibition of O=C1CN(c2nc3ccccc3n3cnnc23)CC(=O)N1CCc1ccccc1 is ____.
Result: -6.92

Q: # lookup: growth inhibition of COc1ccc(C2CC(c3cccc(OC)c3)n3nc(N)nc3N2)cc1 (stereo not drawn)
Result: -5.42

Q: I'd like to know its growth inhibition. The molecule in question is CCOC(=O)c1sc2nc(NC(=O)C(C)(C)C)sc2c1C
Result: -1.74

Q: # input molecule: COC(=O)CSc1nc2nc(C)cc(C)n2n1 ; wanted: its growth inhibition
Result: -2.5

Q: For CCOC(=O)C(C)(C)Sc1nc2c(cnn2-c2ccc(Cl)cc2)c(=O)[nH]1 , what is its reported growth inhibition?
Result: -5.47

---

compounds and their reported viability increase
Experiment Description: doxorubicin toxicity protection in MRP-1 cells – H69AR cells, CellTiter-Glo, duplicate, MRP-1 activator project, pilot screen (AID 807);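 note: compound pretreatment 18-22 h then 72 h combined with doxorubicin; 0% = doxorubicin alone and 100% = vehicle without doxorubicin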
Assay Conditions: H69AR viability with doxorubicin, CellTiter-Glo luminescence; at 10 µM; stronger effect = higher value
Unit % implied. Number only.

Q: Which viability increase is reported for this compound? Cc1nnc(N2C(=O)C(O)=C(C(=O)c3ccco3)C2c2ccc(F)cc2)s1 (stereo unspecified)
Result: -1.63

Next:
Q: GET /values?readout=viability increase&item= Cn1cc(S(=O)(=O)N2CCN(Cc3ccccc3)CC2)c(=O)n(C)c1=O
Result: -0.5

Q: Consider the compound shown here: COc1ccc(-c2cc(C(F)(F)F)nc(S(C)(=O)=O)n2)cc1OC What is its recorded viability increase?
Result: -7.11

Q: Item under review: O=C(Nc1nnc(-c2ccc(Cl)cc2)o1)C1CCCCC1 . Reported viability increase?
Result: -1.38

---

Experiment Description: MRP1 drug-resistance reversers in H69AR cells – cell-based, doxorubicin co-treatment, pilot screen (AID 601)
Assay Conditions: H69AR cells, CellTiter-Glo, 72 h; compound alone cytotoxicity; at 10 µM
// reported viability per item
Express it in %; write the number only.

These solved cases illustrate the format of a correct answer.
Q: What value of viability has been reported for the following compound? O=C(Cn1nc(Cc2cccnc2)c2ccccc2c1=O)NCC1CCCO1 (stereo unspecified)
Result: 92.2

Q: Entry under review: COc1ccc(-c2nc(CSCC(=O)N3CCN(c4cccc(C)c4)C(C)C3)c(C)o2)cc1OC (stereo unspecified) . Reported viability?
Result: 85.7

Q: Look at this compound and give its reported viability. O=C(CSc1nc(-c2ccco2)cc(C(F)(F)F)n1)NCCCn1ccnc1
Result: 94.7

Q: Quick one: viability of Cc1ccc2c(c1)C1CCCC3C1N2CC(=O)N3Cc1ccccc1 (stereo unspecified) ?
Result: 75.5

Q: Record request: viability value, item Cc1nnc(NC(=O)c2ccco2)s1
Result: 104

Now consider a different compound.
Q: Any idea what viability was measured for COc1cc(NC(=O)C2CCCN2S(=O)(=O)c2cccc3cccnc23)cc(OC)c1OC (stereo unspecified) ?
Result: 82.2

Provenance of the data: PubChem BioAssay
